- System: SK-MEL-5
- assay: NCI tumour cell line growth inhibition, 48 h
Active and inactive are the calls of the source. No stated cut-off is given here; in the data, active = GI50 up to about 1.1 µM and inactive = higher.
Recorded GI50, one value per entry.

Study these solved cases before continuing.
INSERT INTO measurements (compound, val) VALUES
  ('NCCSC(c1ccccc1)c1ccccc1', '16.7 µM (inactive)'),
  ('COC(=O)[C@@H]1CS(=O)(=O)C(C(C)C)N1C(C)=O (stereo partly drawn)', '> 100 µM (inactive)');

Turning now to a further record.
query: Give the reported GI50 for this compound. COC(=O)C(Cc1ccccc1)NS(=O)(=O)c1ccc(-c2c3nc(c(-c4ccc(S(=O)(=O)NC(Cc5ccccc5)C(=O)OC)cc4)c4ccc([nH]4)c(-c4ccc(S(=O)(=O)NC(Cc5ccccc5)C(=O)OC)cc4)c4nc(c(-c5ccc(S(=O)(=O)NC(Cc6ccccc6)C(=O)OC)cc5)c5ccc2[nH]5)C=C4)C=C3)cc1 (stereo not drawn)
result: > 100 µM (inactive)

###

- System: MDA-N
- assay: NCI tumour cell line growth inhibition, 48 h
The source made the active and inactive calls. No stated cut-off is given here; in the data, active = GI50 up to about 1.1 µM and inactive = higher.
Recorded GI50, one value per entry.

Study these solved cases before continuing.
INSERT INTO results (compound, val) VALUES
  ('CC(=O)Nc1ncc2c(n1)-c1ccccc1OC2', '> 100 µM (inactive)'),
  ('O=C(Nc1ccc2[nH]c(C(=O)N3CC(CCl)c4c3cc([N+](=O)[O-])c3ccccc43)cc2c1)c1cc2ccccc2o1 (stereo unspecified)', '> 100 µM (inactive)'),
  ('CC(=O)OCC1=C2C(OC(=O)C(C)C)CC3(COC(C)=O)OC3/C=C\C3(C)OC3C2OC1=O (stereo unspecified)', '> 100 µM (inactive)'),
  ('CCN(CC)c1ccc2cc(C(=O)Nc3ccccn3)c(=N)oc2c1', '> 100 µM (inactive)');

query: Give the reported GI50 for this compound. N#CN1C2CCC1CC(=O)C2
result: > 100 µM (inactive)

query: Give the reported GI50 for this compound. COc1cccc(C23CCN(C)C(CC(O)C2)C3)c1OC (stereo unspecified)
result: > 100 µM (inactive)

query: Give the reported GI50 for this compound. CC(C)(C)C1=C(Br)C(OC(=O)C(F)(F)F)(C(C)(C)C)OP1(=O)c1ccccc1 (stereo unspecified)
result: 60.8 µM (inactive)

query: Give the reported GI50 for this compound. O=[N+]([O-])c1ccc2c3ccccc3[s+]([O-])c2c1 (stereo unspecified)
result: > 100 µM (inactive)

query: Give the reported GI50 for this compound. COc1ccc(/C=N/c2ccc(-c3nc4ccccc4[nH]3)cc2)cc1OC
result: > 100 µM (inactive)

query: Give the reported GI50 for this compound. COC(=O)c1sc2c(Cl)c(Cl)sc2c1Cl
result: > 100 µM (inactive)

query: Give the reported GI50 for this compound. CCC(NC1=NCCO1)c1cccs1 (stereo unspecified)
result: 14.6 µM (inactive)

query: Give the reported GI50 for this compound. Cn1c2c(c3ccccc31)CCN1C(=O)C34CCCC3CC21S4 (stereo unspecified)
result: > 100 µM (inactive)

query: Give the reported GI50 for this compound. Cc1nc(C)c(N2CCN(C(=O)O)CC2)c(O)n1
result: > 100 µM (inactive)

query: Give the reported GI50 for this compound. Clc1nc2c(-c3cccs3)ncnc2n1Cc1ccccc1
result: 42.6 µM (inactive)

query: Give the reported GI50 for this compound. Cc1c(Cl)c(C)c(Cl)c(O)c1Cl
result: 24.6 µM (inactive)

query: Give the reported GI50 for this compound. FC(F)(F)c1cccc(-c2nc3ccccc3c3c2[C@@]2(N4CCCC4)CCCC[C@@H]32)c1
result: 32.2 µM (inactive)
